- TGT: DRB1*0701 (DR7) (Homo sapiens, UniProt P01903+P01911, A100R/A102G/A103Q/D57E/D86V/E43K/F76Y/K127E/L162R/M171V/P40G/Q125H/Q99D/R33Q/R42Y/R54Q/S133A/S66F/T210M/V115G/Y107V/Y59L/Y89S)
- Construct: endogenous in cells; host or cells: Pitout
- METHOD_DESCRIPTION: biochemical
- Format: binding
RECORDED_ENDPOINT: DR7 binding data
Lab note: record just the number, no unit beside it.

Exercise: Fill in: DR7 binding data of `WDEWSPCSV` is ___
Solution: -0.0003

Exercise: Fill in: DR7 binding data of `FDLFLVNGR` is ___
Solution: 0.0470

Exercise: Fill in: DR7 binding data of `FMKAVCVEV` is ___
Solution: 0.0019

***
Exercise: Fill in: DR7 binding data of `LTDGIPDSI` is ___
Solution: -0.0003

Exercise: Fill in: DR7 binding data of `LTMSNVKNV` is ___
Solution: 0.0410

Exercise: Fill in: DR7 binding data of `LSTNLPYGR` is ___
Solution: 0.0005

Exercise: Fill in: DR7 binding data of `VHDLISDMI` is ___
Solution: 0.0100

====

- TGT: HLA-A*0301 (Homo sapiens)
- Construct: endogenous in cells; host or cells: GM3107
- METHOD_DESCRIPTION: HLA class I peptide binding assay
- MEASUREMENT_SETUP: Malaria A3 motif peptides, Table XVI; binding value to HLA-A*0301, unit not given
RECORDED_ENDPOINT: A*0301 (binding information)
Lab note: record just the number, no unit beside it.

Previously resolved entries follow.
Exercise: Fill in: A*0301 (binding information) of `CGKGIRSRKR` is ___
Solution: 0.0002

Exercise: Fill in: A*0301 (binding information) of `LSTNLPYGR` is ___
Solution: 0.0004

Exercise: Fill in: A*0301 (binding information) of `QCEEERCPPK` is ___
Solution: 0.0004

Exercise: Fill in: A*0301 (binding information) of `PSDGKCNLY` is ___
Solution: 0.0002

Exercise: Fill in: A*0301 (binding information) of `IAGGLALLA` is ___
Solution: 0.0002

Exercise: Fill in: A*0301 (binding information) of `SDASICNKEK` is ___
Solution: 0.0005

Exercise: Fill in: A*0301 (binding information) of QSQDNNONRH (QSQDNNGNRH) is ___
Solution: 0.0004

Exercise: Fill in: A*0301 (binding information) of `QVRICHLNDR` is ___
Solution: 0.0005

Exercise: Fill in: A*0301 (binding information) of `DIPICKPENKH` is ___
Solution: 0.0002

Exercise: Fill in: A*0301 (binding information) of LVGCHPSDOK (LVGCHPSDGK) is ___
Solution: 0.0004

# ---- query sequence ----
Exercise: Fill in: A*0301 (binding information) of `CSVTCGKGTR` is ___
Solution: 0.0002

====

- TGT: DRB1*0802 (DR8w2) (Homo sapiens, UniProt P01903+P01911, A100R/A103L/A169T/F76Y/H45Y/I96F/K41T/L162R/M171V/P40S/Q125H/Q178H/Q39Y/Q99D/R218S/R42G/S66Y/V115G/W38E)
- Construct: endogenous in cells; host or cells: OLL
- METHOD_DESCRIPTION: biochemical
- Type: binding
Entries annotated with measured DR8w2 binding data
Lab note: record just the number, no unit beside it.

Exercise: Fill in: DR8w2 binding data of `VNHAVPLAM` is ___
Solution: 0.200

Exercise: Fill in: DR8w2 binding data of `VSTVLLGGV` is ___
Solution: -0.0003

====

- TGT: DRB1*0701 (DR7) (Homo sapiens, UniProt P01903+P01911, A100R/A102G/A103Q/D57E/D86V/E43K/F76Y/K127E/L162R/M171V/P40G/Q125H/Q99D/R33Q/R42Y/R54Q/S133A/S66F/T210M/V115G/Y107V/Y59L/Y89S)
- Construct: endogenous in cells; host or cells: Pitout
- METHOD_DESCRIPTION: biochemical
- Type: binding
Entries annotated with measured DR7 binding data
Lab note: record just the number, no unit beside it.

Previously resolved entries follow.
Exercise: Fill in: DR7 binding data of `VSTVLLGGV` is ___
Solution: -0.0003

Exercise: Fill in: DR7 binding data of `FQEYQCYGS` is ___
Solution: -0.0003

Exercise: Fill in: DR7 binding data of `LALFFIIFN` is ___
Solution: 0.0056

Exercise: Fill in: DR7 binding data of `VDLYLLMDC` is ___
Solution: -0.0003

Exercise: Fill in: DR7 binding data of `WVNHAVPLA` is ___
Solution: 0.4400

Exercise: Fill in: DR7 binding data of `IAGGLALLA` is ___
Solution: -0.0003

Exercise: Fill in: DR7 binding data of `VVPGAATPY` is ___
Solution: 0.0160

Exercise: Fill in: DR7 binding data of `YDNAGINLY` is ___
Solution: -0.0003

***
Exercise: Fill in: DR7 binding data of `YLLMDCSGS` is ___
Solution: 0.0046

====

Entries annotated with measured DR9 binding data
- TGT: DRB1*0901 (DR9) (Homo sapiens, UniProt P01903+P01911, A100R/A103E/D57H/D86V/F55Y/F60I/F76Y/I96F/K127E/L162R/M171V/P40D/Q125H/Q99R/R33Q/R42F/S133A/S66N/T210M/V115G/W38K/Y107V/Y59G/Y89S)
- Construct: endogenous in cells; host or cells: HID
- METHOD_DESCRIPTION: biochemical
- Format: binding
Lab note: record just the number, no unit beside it.

Exercise: Fill in: DR9 binding data of `WVNHAVPLA` is ___
Solution: 4.6000

***
Exercise: Fill in: DR9 binding data of `FYFILVNLL` is ___
Solution: -0.0003

Exercise: Fill in: DR9 binding data of `VHDLISDMI` is ___
Solution: 0.0430

====

- TGT: DRB1*0802 (DR8w2) (Homo sapiens, UniProt P01903+P01911, A100R/A103L/A169T/F76Y/H45Y/I96F/K41T/L162R/M171V/P40S/Q125H/Q178H/Q39Y/Q99D/R218S/R42G/S66Y/V115G/W38E)
- Construct: endogenous in cells; host or cells: OLL
- METHOD_DESCRIPTION: biochemical
- Type: binding
Entries annotated with measured DR8w2 binding data

Previously resolved entries follow.
Exercise: Fill in: DR8w2 binding data of `LALLACAGL` is ___
Solution: 0.0003

Exercise: Fill in: DR8w2 binding data of `YKFVVPGAA` is ___
Solution: 2.5000

Exercise: Fill in: DR8w2 binding data of `VVPGAATPY` is ___
Solution: 0.0026

Exercise: Fill in: DR8w2 binding data of `YDNAGINLY` is ___
Solution: -0.0003

# ---- query sequence ----
Exercise: Fill in: DR8w2 binding data of `LAMKLIQQL` is ___
Solution: 0.0400

====

- TGT: DRB1*0301 (DR3) (Homo sapiens, UniProt P01903+P01911, A100K/A102G/A103R/A169T/F55Y/I96L/K41T/L162R/M171V/P40S/Q125H/Q178H/Q39Y/R42S/S66N/T106N/T262R/W38E/Y61H)
- Construct: endogenous in cells; host or cells: MAT
- Sequence (P01911 30-266 W38E/Q39Y/P40S/K41T/R42S/F55Y/Y61H/S66N/I96L/A100K/A102G/A103R/T106N/Q125H/Q178H): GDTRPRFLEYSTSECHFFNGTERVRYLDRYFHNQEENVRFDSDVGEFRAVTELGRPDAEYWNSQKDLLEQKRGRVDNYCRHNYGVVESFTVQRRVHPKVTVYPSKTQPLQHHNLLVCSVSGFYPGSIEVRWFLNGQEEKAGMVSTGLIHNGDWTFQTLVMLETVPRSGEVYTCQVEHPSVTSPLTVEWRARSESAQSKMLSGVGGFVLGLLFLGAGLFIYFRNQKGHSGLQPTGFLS
- Sequence (P01903 26-254 partner): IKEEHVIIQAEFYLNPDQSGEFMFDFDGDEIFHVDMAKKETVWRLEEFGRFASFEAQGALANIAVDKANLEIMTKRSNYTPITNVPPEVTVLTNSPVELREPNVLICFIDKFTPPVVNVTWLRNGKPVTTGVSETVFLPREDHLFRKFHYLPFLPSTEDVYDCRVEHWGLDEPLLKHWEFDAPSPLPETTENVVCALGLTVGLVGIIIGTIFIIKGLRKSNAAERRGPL
- METHOD_DESCRIPTION: HLA class II peptide binding assay (pH 4.5)
- MEASUREMENT_SETUP: DR3a motif peptides; unit not given; exemplary 15-mer containing the core sequence
Param label: returns Y when DR3 binding information < -0.003, returns N otherwise, including exact equality.

Exercise: Here's an entry: `ISAEYDDSL` . Is its DR3 binding information below -0.003?
Solution: Y

Exercise: Here's an entry: `LFVEALFQE` . Is its DR3 binding information below -0.003?
Solution: N

***
Exercise: Here's an entry: `ILTDGIPDS` . Is its DR3 binding information below -0.003?
Solution: N

Exercise: Here's an entry: `LANEKLQEQ` . Is its DR3 binding information below -0.003?
Solution: Y

Exercise: Here's an entry: `VCNDEVDLY` . Is its DR3 binding information below -0.003?
Solution: N

Exercise: Here's an entry: `INRENANQL` . Is its DR3 binding information below -0.003?
Solution: N

Exercise: Here's an entry: `YKNDKQVNK` . Is its DR3 binding information below -0.003?
Solution: Y

Exercise: Here's an entry: `VQYDNFQDE` . Is its DR3 binding information below -0.003?
Solution: Y

Exercise: Here's an entry: `LYNELEMNY` . Is its DR3 binding information below -0.003?
Solution: N

Exercise: Here's an entry: `LFQEYQCYG` . Is its DR3 binding information below -0.003?
Solution: N

Exercise: Here's an entry: `LLMDCSGSI` . Is its DR3 binding information below -0.003?
Solution: N

Exercise: Here's an entry: `LYADSAWEN` . Is its DR3 binding information below -0.003?
Solution: N

Exercise: Here's an entry: `LEQERLAKE` . Is its DR3 binding information below -0.003?
Solution: Y

Exercise: Here's an entry: `FNKESLAEK` . Is its DR3 binding information below -0.003?
Solution: N

Exercise: Here's an entry: `IYKELEDLI` . Is its DR3 binding information below -0.003?
Solution: Y

Exercise: Here's an entry: `IPEDSEKEV` . Is its DR3 binding information below -0.003?
Solution: Y

Exercise: Here's an entry: `MPNDPNRNV` . Is its DR3 binding information below -0.003?
Solution: Y

Exercise: Here's an entry: `YAGEPAPFD` . Is its DR3 binding information below -0.003?
Solution: Y

Exercise: Here's an entry: `VEVEKTASC` . Is its DR3 binding information below -0.003?
Solution: Y

Exercise: Here's an entry: `VLNELNYDN` . Is its DR3 binding information below -0.003?
Solution: Y
